All figures here come from PubChem BioAssay (NCI).

In this section, each of the compounds is paired with its reported TGI.
- System: EKVX NSCLC
- ASSAY_OVERVIEW: NCI tumour cell line growth inhibition, 48 h
PARAMETER: TGI

ITEM_SMILES	PARAMETER	REPORTED_VALUE
O=S(=O)(O)c1c(Cl)c(Cl)c(O)c2ncccc12	TGI	41.6 µM
O=C(CCN1CCCCC1)c1csc2ccccc12	TGI	> 100 µM
COC1(OC)CCN(Cc2ccccc2)C1=O	TGI	29.7 µM
O=C(O)c1ccc(CSc2nc3ccccc3[nH]2)cc1	TGI	> 100 µM
C=C1N(C)c2ccc(S(=O)(=O)c3ccc4c(c3)C(C)(C)C(=C)N4C)cc2C1(C)C	TGI	> 100 µM
CCOC(=O)c1c(C)n([O-])c2cc(F)c(F)cc2[n+]1=O	TGI	3.98 µM
C=C(C)[C@@H]1CC[C@]2(C(=O)O)CC[C@]3(C)[C@H](CC[C@@H]4[C@@]5(C)C/C(=C/c6ccco6)C(=O)C(C)(C)[C@@H]5CC[C@]43C)[C@@H]12	TGI	> 100 µM
[O-]c1c2c(nn1-c1ccc(F)cc1)c1ccccc1c[n+]2Cc1ccccc1	TGI	56.4 µM
NNC(=O)/C(NC(=O)c1ccccc1)=C(\N)c1cccc([N+](=O)[O-])c1	TGI	> 100 µM
N#Cc1c(C#N)c(SSc2c(C#N)c(C#N)c(N)n2-c2cccc3ccccc23)n(-c2cccc3ccccc23)c1N	TGI	10.1 µM
CC(=O)Oc1ccc2c(c1)[nH]c1c3ccc(OC(C)=O)cc3oc(=O)c21	TGI	86.1 µM

---

- Test system: DU-145 prostate
- ASSAY_OVERVIEW: NCI tumour cell line growth inhibition, 48 h
In this section, each of the molecules is paired with its reported TGI.
PARAMETER: TGI

ITEM_SMILES	REPORTED_VALUE
CC(C)C[C@H](NC(=O)[C@@H](Cc1ccccc1)n1ccc(Nc2ccccc2)cc1=O)B(O)O	16.7 µM
CCCCCCCCCCCCCCCC(=O)NS(=O)(=O)OC[C@H]1O[C@@H](n2cnc3c(N)ncnc32)[C@H](O)[C@@H]1O	3.98 µM
Nc1ccc(-c2nc3ccccc3s2)cc1CO	> 100 µM

---

- Tested on: BT-549 breast
- ASSAY_OVERVIEW: NCI tumour cell line growth inhibition, 48 h
PARAMETER: TGI (µM)

COMPOUND	PARAMETER	UNIT_STRING	CENSORING_SIGN	REPORTED_VALUE
O=C(c1ccccc1)c1ccc(N2C(=O)/C(=C/c3ccccc3S)N=C2c2ccccc2)c(N2C(=O)/C(=C/c3ccccc3S)N=C2c2ccccc2)c1	TGI	µM	>	100
Cn1c2c(c3ccccc31)CCN1C[C@@H]3CCCC[C@H]3C[C@@H]21	TGI	µM	=	9.19
Cc1nc2ccc(-n3ncc(C(=O)c4cc5ccccc5[nH]4)c3N)cc2[nH]1	TGI	µM	=	38.6
CC(=O)N1C(c2[nH]c3ccccc3c2Cc2ccccc2)CCN1c1ccccc1 (stereo not given)	TGI	µM	>	10
COc1ccc(C2=C(c3ccccc3)C(=O)N3CCCC3C2)cc1 (stereo not given)	TGI	µM	>	100

---

In this section, each of the compounds is paired with its reported TGI.
- Test system: MOLT-4 leukemia
- ASSAY_OVERVIEW: NCI tumour cell line growth inhibition, 48 h

COMPOUND	SYSTEM_NAME	TGI
COc1ccccc1/C=C1\CCC(Cc2ccccc2)(CN(C)C)C1=O (stereo not given)	MOLT-4 leukemia	38.9 µM
CC(C)CC(N)C(=O)NC(CNC(CCC(N)=O)C(=O)NC(CC(C)C)C(=O)NC(CC(C)C)C(=O)O)Cc1ccc2ccccc2c1 (stereo not given)	MOLT-4 leukemia	> 10 µM
CC[O-].CC[O-].O=C1C=C([O-])C(=O)c2ccccc21.O=C1C=C([O-])C(=O)c2ccccc21.[Ti+4]	MOLT-4 leukemia	> 100 µM
COc1cc(/C=C2\CC3C4CCC5=CC(=O)CC[C@]5(C)C4CC[C@]3(C)C2=O)ccc1OCCN1CCCC1 (stereo not given in full)	MOLT-4 leukemia	1.84 µM
CC1=CC2(C)C=C[C@@H]1C(=O)[C@@]1(C)CC[C@@](O)(C(C)C)[C@H]1CC2	MOLT-4 leukemia	51.9 µM
CCOC(=O)C(C(=O)OCC)=C1C=C(c2ccccc2)c2ccccc21	MOLT-4 leukemia	> 100 µM
NC1=NC(c2ccc(Cl)cc2)=CC(c2cccc(Cl)c2)S1 (stereo not given)	MOLT-4 leukemia	> 100 µM
Nc1c(F)c(F)c2c(c1F)N(CCCCCl)c1ccccc1S2	MOLT-4 leukemia	> 100 µM
CN1C(=O)C(N=Nc2ccc([N+](=O)[O-])cc2)SC1=S (stereo not given)	MOLT-4 leukemia	> 100 µM
O=c1ccn(C/C=C/c2ccccc2)c(=S)n1C/C=C/c1ccccc1	MOLT-4 leukemia	92.6 µM
